For each record, write down the corresponding koff.
- Subject Of Test: T1, recombinant dimeric c-Met (R&D systems, 358-MT/CF) (human, UniProt P08581 25-932)
- T1 construct: Bought product; also called Fc-Met; recombinant c-Met
- Run Description: SPR, periplasmic Fab over Fc-Met (around 3000 RU) on CM5 chip
Answers are plain numbers, in s⁻¹.

Here is how some binders turned out for koff.
* 48D7 VL shuffled Fab (Fab, V domains shown, VL-shuffled Fab with the 38H10 heavy chain, periplasmic extract) VH: EVQLVQPGVELRNPGASVKVSCKASGYIFTMNSIDWVRQAPGQGLEWMGRIDPEDGGTKYAQKFQGRVTFTADTSTSTAYVELNSLRSEDTAVYYCARVDDYYLGYDYWGQGTQVTVSS VL: DIVMTQTPASVTASAGEKVTINCKSSQSVLFSSNQKNYLAWYQQRVGQSPRLLIYWASTRESGVPDRFSGSGSTTDFTLTISNFQPEDAAVYYCQQGYSFPYSFGSGTRLEIR | 0.00025
* 49D2 VL shuffled Fab (Fab, V domains shown, VL-shuffled Fab with the 36C4Q heavy chain, periplasmic extract) VH: QVQLVESGPGLVKPSQTLSLTCAVSGGSITTNYYYWSWIRQSPGKGLEWMGVIAYDGSTDYSPSLKSRTSISRDTSKNQFSLQLSSVTPEDTAVYYCARDVRVIATGWATANALDAWGQGTQVTVSS VL: QSVLTQPPSVSGTLGKTLTISCAGTSTDVGYGNYVSWYQQLPGTAPKLLIFAVSYRASGIPDRFSGSKSGNTAFLTISGLQSEDEADYYCASYRSSNNAAVFGGGTHLTVL | 0.00017

Request: Look up koff of 38H10 Fab (Fab, V domains shown, Fab from the phage display library, tested as periplasmic extract) VH: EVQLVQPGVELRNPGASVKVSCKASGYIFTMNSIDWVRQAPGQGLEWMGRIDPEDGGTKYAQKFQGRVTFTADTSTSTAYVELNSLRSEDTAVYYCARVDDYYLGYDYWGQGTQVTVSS VL: EIVMTQSPSSVTASAGEKVTINCKSSQSVLWRSNQKNYLAWYQQRLGQSPRLLISWASIRESGVPDRFSGSGSTTDFTLTISSFQPEDAAVYYCQQGYSFPYTFGSGTRLEIK and report it.
Result: 0.0005

Entry source: patent US20120148607A1
